Listed below: IC50 (µg/ml) with constrains values for each entry.
# Measured On: HIV Env of isolate 191084B7-19 (clade A) (HIV)
# Assay Info: cell-based or functional assay
Write the number in µg/mL without appending the unit.

Some entries whose results are on file:
Task: Entry ePGDM9 (antibody, V domains shown) VH: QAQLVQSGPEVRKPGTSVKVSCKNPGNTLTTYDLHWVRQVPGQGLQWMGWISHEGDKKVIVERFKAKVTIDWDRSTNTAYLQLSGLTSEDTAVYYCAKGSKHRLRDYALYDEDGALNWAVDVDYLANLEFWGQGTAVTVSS VL: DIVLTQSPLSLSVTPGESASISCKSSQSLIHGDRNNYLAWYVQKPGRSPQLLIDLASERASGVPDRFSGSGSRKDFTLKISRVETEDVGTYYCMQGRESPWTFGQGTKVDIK has what IC50 (µg/ml) with constrains?
Output: 0.002

Task: Entry ePGDM5 (antibody, V domains shown) VH: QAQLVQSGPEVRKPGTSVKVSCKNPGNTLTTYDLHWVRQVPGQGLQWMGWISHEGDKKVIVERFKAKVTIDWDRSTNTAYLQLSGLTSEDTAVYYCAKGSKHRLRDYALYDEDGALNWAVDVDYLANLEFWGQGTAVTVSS VL: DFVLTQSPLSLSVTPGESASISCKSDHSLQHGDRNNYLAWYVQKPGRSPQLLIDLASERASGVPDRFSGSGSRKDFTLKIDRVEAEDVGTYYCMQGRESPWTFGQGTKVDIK has what IC50 (µg/ml) with constrains?
Output: 0.001

Task: Entry PGDM1400 (antibody, V domains shown) VH: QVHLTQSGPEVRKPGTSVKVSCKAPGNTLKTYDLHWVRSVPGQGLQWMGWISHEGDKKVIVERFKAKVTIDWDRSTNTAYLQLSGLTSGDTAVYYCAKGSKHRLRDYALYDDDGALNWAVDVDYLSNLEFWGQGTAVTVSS VL: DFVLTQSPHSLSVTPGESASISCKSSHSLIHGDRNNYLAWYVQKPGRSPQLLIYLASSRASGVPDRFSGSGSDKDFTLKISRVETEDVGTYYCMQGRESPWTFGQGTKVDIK has what IC50 (µg/ml) with constrains?
Output: 0.002

Consider the additional binder presented here.
Task: Entry ePGDM13 (antibody, V domains shown) VH: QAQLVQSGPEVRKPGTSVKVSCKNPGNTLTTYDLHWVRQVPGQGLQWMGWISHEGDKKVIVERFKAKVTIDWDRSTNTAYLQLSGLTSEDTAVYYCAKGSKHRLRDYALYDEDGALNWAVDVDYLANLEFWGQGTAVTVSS VL: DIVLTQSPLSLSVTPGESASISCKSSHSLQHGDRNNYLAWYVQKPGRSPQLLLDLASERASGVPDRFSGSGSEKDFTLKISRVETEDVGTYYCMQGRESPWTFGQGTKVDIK has what IC50 (µg/ml) with constrains?
Output: 0.001

Data provenance is patent US20230134571A1.
